Test system: SR
Test: NCI tumour cell line growth inhibition, 48 h
Activity calls are given as the source filed them. Rule as the data show it: active = GI50 up to about 1.1 µM and inactive = higher.
Answer with one of the outcomes active, inactive

(Q) Outcome? `CC(C)(C)c1ccc(C(O)(c2ccc(C(C)(C)C)cc2)c2ccc(C(C)(C)C)cc2)cc1`
(A) inactive

(Q) How about this compound: `O=C1NC(Nc2ccccc2)=N/C1=C\c1c(Cl)cccc1Cl`
(A) inactive

(Q) How about this compound: `CCn1ncc(N=O)c1N`
(A) inactive

(Q) How about this compound: Cc1cc(O)c2c(c1)C[C@@H](O)C1=C2C(=O)c2c(O)ccc(OC3CC(O)C(OC4CC(OC5CCC(OC6CC(O)C(OC7CC(OC8CCC(O)C(C)O8)C(O)C(C)O7)C(C)O6)C(C)O5)C(O)C(C)O4)C(C)O3)c2C1=O (some centres undefined)
(A) active

###

Test system: OVCAR-4
Test: NCI tumour cell line growth inhibition, 48 h
Active and inactive are the calls of the source. Cut-off read from the data, not from the text of the source: active = GI50 up to about 1.1 µM and inactive = higher.
endpoint: GI50

(Q) // map `Cc1oc2c(c1C)S(=O)(=O)C(C#N)=CN2` to recorded GI50 (system: OVCAR-4)
(A) > 100 µM (inactive)

(Q) How about this compound: `Cl/C(=N\c1cccc2ccccc12)N(c1ccccc1)c1ccccc1`
(A) > 100 µM (inactive)

(Q) How about this compound: `O=c1oc2ccc([N+](=O)[O-])cc2c(Nc2ccc3c(c2)Sc2ccccc2O3)c1[N+](=O)[O-]`
(A) 32.3 µM (inactive)

(Q) How about this compound: `CN(/N=C(\C(=O)O)c1ccccc1)C1=NCCN1`
(A) > 100 µM (inactive)

(Q) How about this compound: CSC[C@H](NC(=O)COc1cccc2cnccc12)C(=O)NC(Cc1ccccc1)C(O)C(=O)N1CSC[C@H]1C(=O)NC(C)(C)C (some centres not stated)
(A) 57.5 µM (inactive)

(Q) How about this compound: `Cc1cc2[nH]c3c(C#N)c(-c4ccccc4)c(CN4CCOCC4)c(=O)n3c2cc1C`
(A) > 100 µM (inactive)

(Q) How about this compound: `C=CCCCN(C(=O)c1ccccc1)c1ccc(C(=O)OC)o1`
(A) > 100 µM (inactive)

(Q) How about this compound: CSC1C(=O)Nc2ccc3ccccc3c21 (configuration not stated)
(A) 20.2 µM (inactive)

(Q) How about this compound: `CCCCCCCCCCCCOC(=N)N1CCOCC1`
(A) 7.62 µM (inactive)

(Q) How about this compound: `OCCN(CCO)c1cccc(N(CCO)CCO)c1`
(A) > 100 µM (inactive)

(Q) How about this compound: CC(C)C(CC(=O)OCC(CO)OC(=O)CC(C(C)C)C(C)C)C(C)C (configuration not stated)
(A) 18 µM (inactive)

(Q) How about this compound: `CCOC(=O)NCC(=O)NCC(=O)NCC(N)=O`
(A) > 100 µM (inactive)

(Q) How about this compound: `O=c1c(-c2ccccc2)c(SCCN2CCCCCC2)n(-c2ccccc2)c(=S)n1-c1ccccc1`
(A) 15.5 µM (inactive)

(Q) How about this compound: CSc1nc(Cl)c2c(n1)Sc1nc3cc4c(cc3n1C2O)OCO4 (configuration not stated)
(A) > 100 µM (inactive)

(Q) How about this compound: C/C(=N\NC(=N)N)C(CN(CC(C)C)CC(C)C)C(=O)Nc1ccc(C)cc1C (configuration not stated)
(A) > 100 µM (inactive)

(Q) How about this compound: CC1=C(C(=O)OCCc2ccc([N+](=O)[O-])cc2)C(c2ccccc2[N+](=O)[O-])C(C(=O)OC(C)C)=C(C)N1 (configuration not stated)
(A) 37.9 µM (inactive)

(Q) How about this compound: `CC(C)OC(=O)c1ccc(NCC2=CC(=O)C=CC2=O)cc1`
(A) 12.8 µM (inactive)

(Q) How about this compound: `CN(C)Cc1cc(C(=O)/C=C/c2c(F)cccc2Cl)cc(CN(C)C)c1O`
(A) 15.2 µM (inactive)

(Q) How about this compound: CCOC(=O)c1cc2c(OCc3ccccc3)c(OC)cc3c2c(n1)N(c1ccc(OC)cc1)C(C)C3 (configuration not stated)
(A) 10.4 µM (inactive)

(Q) How about this compound: `CCC[C@H]1O[C@@H]2CC(=O)O[C@@H]2C2=C1C(=O)C=CC2=O`
(A) 16.3 µM (inactive)

(Q) How about this compound: NC(CCSCC(F)(F)F)C(=O)O (configuration not stated)
(A) > 100 µM (inactive)

(Q) How about this compound: `COc1ccc2c(c1)CC1=C(O2)c2ccc(OC)cc2OC1`
(A) 22.5 µM (inactive)

Origin of values: ChEMBL document CHEMBL1201862
